The reader will find reported pKd values listed item by item below.
target_or_system: T1, human CD137 displayed on yeast cells (human, UniProt Q07011 24-186, limits assumed)
T1 construct: Yeast cells displaying human CD137 on their surface; also called human CD137 on the cell surface
method_notes: flow cytometry on yeast cells displaying human CD137, PE anti-human Fc (column head prints EC50 over KD (nM))
pKd is a log-scale quantity: -log10 of the concentration expressed in molar.

In the examples that follow, each entry is paired with its recorded pKd.
>>> test_value("TY21242 (antibody, V domains shown, also called parental antibody TY21242; parental CD137 antibody) VH: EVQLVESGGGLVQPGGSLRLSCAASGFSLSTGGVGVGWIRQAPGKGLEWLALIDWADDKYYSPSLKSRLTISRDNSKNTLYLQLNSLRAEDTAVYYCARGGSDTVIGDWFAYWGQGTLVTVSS VL: DIQLTQSPSSLSASVGDRVTITCRASQSIGSYLAWYQQKPGKAPKLLIYDASNLETGVPSRFSGSGSGTDFTLTISSLQPEDFATYYCQQGYYLWTFGQGTKVEIK")
9.55
>>> test_value("TY22595 (antibody, V domains shown, Full IgG4 from mammalian cells; peptide fused to the N-terminus of the light chain of TY21242) VH: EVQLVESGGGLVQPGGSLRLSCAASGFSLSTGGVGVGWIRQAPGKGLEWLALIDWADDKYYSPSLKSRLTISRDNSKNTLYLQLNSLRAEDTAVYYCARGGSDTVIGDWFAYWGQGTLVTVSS VL: EVGSYNDYNYHCKWRPSRCHNSGRSAGGGGSPLGLAGSGGSDIQLTQSPSSLSASVGDRVTITCRASQSIGSYLAWYQQKPGKAPKLLIYDASNLETGVPSRFSGSGSGTDFTLTISSLQPEDFATYYCQQGYYLWTFGQGTKVEIK")
6.97

Now turn to the next binder.
Value of measured pKd for the entry TY22591 (antibody, V domains shown, Full IgG4 from mammalian cells; peptide fused to the N-terminus of the light chain of TY21242) VH: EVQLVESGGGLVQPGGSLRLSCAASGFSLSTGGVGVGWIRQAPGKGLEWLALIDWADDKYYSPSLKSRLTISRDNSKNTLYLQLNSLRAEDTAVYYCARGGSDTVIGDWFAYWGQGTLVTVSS VL: EVGSYSSTHAHCHHSPANCISSGRSAGGGGSPLGLAGSGGSDIQLTQSPSSLSASVGDRVTITCRASQSIGSYLAWYQQKPGKAPKLLIYDASNLETGVPSRFSGSGSGTDFTLTISSLQPEDFATYYCQQGYYLWTFGQGTKVEIK : 7.97
